The reported numbers originate from the Immune Epitope Database (IEDB).

System Tested: HLA-B*08:03
Assay Explanation: IEDB peptide-MHC binding, purified MHC/direct/fluorescence; filed as Kd, often an IC50 or EC50 that approximates it; bounds were set here for any values at or beyond the usual limits of such assays
Applied Conditions: source organism: Influenza A virus(A/swine/Shandong/fNY/2003(H9N2))
Measured Endpoint: Kd

{"columns": ["Polymer Sequence", "Assay Result"],
 "data": [
  ["SFSFGGFTF", "≥ 20 µM"]
]}

----------
System Tested: HLA-B*46:01
Assay Explanation: IEDB peptide-MHC binding, purified MHC/direct/fluorescence; filed as Kd, often an IC50 or EC50 that approximates it; bounds were set here for any values at or beyond the usual limits of such assays
Applied Conditions: source organism: Aracatuba virus
pKd: −log10 of the molar value.
Measured Endpoint: pKd

{"columns": ["Polymer Sequence", "Assay Result"],
 "data": [
  ["YKEPNSIIL", "≤ 4.70"]
]}
